We begin with a simple list: items and their reported screen value.
B1: EWS low-complexity domain (N-terminal 264 residues of RNA-binding protein EWS) [not stated] / itself (parent)
chain: GAMASTDYSTYSQAAAQQGYSAYTAQPTQGYAQTTQAYGQQSYGTYGQPTDVSYTQAQTTATYGQTAYATSYGQPPTGYTTPTAPQAYSQPVQGYGTGAYDTTTATVTTTQASYAAQSAYGTQPAYPAYGQQPAATAPTRPQDGNKPTETSQPQSSTGGYNQPSLGYGQSNYSYPQVPGSYPMQPVTAPPSYPPTSYSSTQPTSYDQSSYSQQNTYGQPSSYGQQSSYGQQSSYGQQPPTSYPPQTGSYSQAPSQYSQQSSSYGQQ

# Variants of: B1
# Test description: pelleting assay (phase separation)
# Test conditions: with itself; 50 µM protein, 150 mM NaCl, 20 mM Tris pH 7.4; read off a plot
Reported metric: screen value

In [3]: df
Out[3]:
        variant_string  numeric_value
0        chain 1 N171S            0.6
1         chain 1 Y46S           0.64
2  chain 1 Y172S Y174S           0.81
3        chain 1 Y210S            0.5
4        chain 1 Y174S           0.75
